Reported values of switch fluorescence ratio for individual entries
# System: ATP;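 also: ATP exposure 15 min at 22 °C before imaging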
# Test Summary: switch fluorescence ratio, 500 uM ATP over buffer (Cy3 cluster intensity, sum of 5 cycles each) (fold (ratio)); higher = stronger signal-on switching upon ATP binding; sequences stand for … in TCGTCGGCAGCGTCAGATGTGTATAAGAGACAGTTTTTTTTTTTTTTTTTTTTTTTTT…TC
# Experimental Parameters: aptamer strand: ATP DNA aptamer (quencher-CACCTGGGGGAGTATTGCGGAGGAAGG + anchor), 100 nM annealed; ATP concentration: 500 uM
API doc: respond with a numeric literal and nothing else, no unit.

Query: # switch fluorescence ratio lookup, item CATATTGGGA
Reply: 0.996

Query: Field entry: GTAGAGCGGG
Reply: 0.989

Query: Field entry: TATGTTGTGA
Reply: 0.99

Query: Field entry: GATGAAACGT
Reply: 1.06

----------
# Test system: ATP;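 also: ATP exposure 15 min at 22 °C before imaging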
# Test Summary: switch fluorescence ratio, 500 uM ATP over buffer (Cy3 cluster intensity, sum of 5 cycles each) (fold (ratio)); higher = stronger signal-on switching upon ATP binding; sequences stand for … in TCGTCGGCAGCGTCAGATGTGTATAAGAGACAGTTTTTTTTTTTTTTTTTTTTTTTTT…TC
# Experimental Parameters: aptamer strand: ATP DNA aptamer (quencher-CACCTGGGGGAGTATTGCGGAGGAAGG + anchor), 100 nM annealed; ATP concentration: 500 uM
Quick rule: switch fluorescence ratio of at least 1 means condition met, below that means condition not met.

// known answers, use as guide
- CAGGCGGTTT: condition not met
- TACTACGTAA: condition met

Query: Is the recorded value of switch fluorescence ratio equal to or greater than 1 for this sequence? ATCAGAATCC
Reply: condition met

Query: Field entry: GCAAGAACTA
Reply: condition met

Query: Field entry: TACAGTAGCT
Reply: condition met

Query: Field entry: TCGAAACTGG
Reply: condition met

Query: Field entry: GGTAGGTTGC
Reply: condition met

Query: Field entry: AGATTGTCTC
Reply: condition not met

----------
# System: ATP;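 also: ATP exposure 15 min at 22 °C before imaging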
# Test Summary: switch fluorescence ratio, 500 uM ATP over buffer (Cy3 cluster intensity, sum of 5 cycles each) (fold (ratio)); higher = stronger signal-on switching upon ATP binding; sequences stand for … in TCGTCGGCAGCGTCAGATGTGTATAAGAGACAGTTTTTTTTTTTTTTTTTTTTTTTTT…TC
# Experimental Parameters: aptamer strand: ATP DNA aptamer (quencher-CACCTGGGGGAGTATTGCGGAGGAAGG + anchor), 100 nM annealed; ATP concentration: 500 uM
Metric: switch fluorescence ratio
API doc: respond with a numeric literal and nothing else, no unit.

Some solved entries appear below for comparison.
* TGTTGGAGTG | 1
* TCAAGGGGGT | 1.04
* CACGGGGGGG | 1.02

Query: # switch fluorescence ratio lookup, item AGATTCTGTT
Reply: 0.945

Query: Field entry: ATTCATTAGG
Reply: 1.02

Query: Field entry: GACATAGTTT
Reply: 1.02

Query: Field entry: ACTGTTCTCG
Reply: 1.01

Query: Field entry: GAGGGATGTA
Reply: 1.01

Query: Field entry: GGGGTTGGGC
Reply: 1

Query: Field entry: CGTTGGGGGG
Reply: 0.999

Query: Field entry: CGGAGACTTG
Reply: 0.973
